Entries annotated with measured MIC
system: MRSA clinical isolates; assay: MIC of imipenem against MRSA in absence or presence of DltA inhibitor; type: cell-based, S. aureus; conditions: Staphylococcus aureus, MRSA, read-out: MIC of IPM, S. aureus (MRSA); in presence of 1 mM of the DltA inhibitor
measured-parameter: MIC (µg/mL)

[
  {
    "smiles-repr": "C[C@@H](N)C(=O)c1cn(C[C@H]2O[C@@H](n3cnc4c(N)ncnc43)[C@H](O)[C@@H]2O)nn1",
    "output-unit": "µg/mL",
    "measured": 8
  },
  {
    "smiles-repr": "C[C@@H](N)C(=O)c1cn(C/C(CO)=C(\\F)Cn2cnc3c(N)ncnc32)nn1",
    "output-unit": "µg/mL",
    "measured": 16
  },
  {
    "smiles-repr": "CC(C)OP(=O)(OC(C)C)C(F)(F)/C=C/CO[C@@H]1[C@H](O)[C@@H](COS(=O)(=O)NC(=O)[C@@H](C)N)O[C@H]1n1cnc2c(N)ncnc21",
    "output-unit": "µg/mL",
    "measured": 0.25
  }
]

----------
Entries annotated with measured pIC50
target: recombinant DltA from E. faecalis (Enterococcus faecalis, UniProt Q830N0); construct: made in house; host or cells: E. coli; assay: DltA enzyme inhibition, PPi release coupled-enzyme assay; assay type: biochemical
Sequence (Q830N0 1-506): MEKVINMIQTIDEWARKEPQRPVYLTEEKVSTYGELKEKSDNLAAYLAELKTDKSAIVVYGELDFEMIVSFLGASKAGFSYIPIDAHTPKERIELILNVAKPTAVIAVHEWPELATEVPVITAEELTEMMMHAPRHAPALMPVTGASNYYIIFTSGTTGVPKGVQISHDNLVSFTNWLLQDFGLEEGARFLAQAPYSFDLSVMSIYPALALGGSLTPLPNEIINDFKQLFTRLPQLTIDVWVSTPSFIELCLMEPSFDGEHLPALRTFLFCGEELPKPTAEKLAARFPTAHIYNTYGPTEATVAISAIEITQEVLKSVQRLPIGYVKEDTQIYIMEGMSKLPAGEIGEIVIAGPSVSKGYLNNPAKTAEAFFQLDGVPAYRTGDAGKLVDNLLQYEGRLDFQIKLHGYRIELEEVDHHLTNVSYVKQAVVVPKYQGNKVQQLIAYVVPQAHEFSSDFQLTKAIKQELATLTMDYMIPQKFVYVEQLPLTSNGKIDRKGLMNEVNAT
pIC50: −log10 of the molar value.
measured-parameter: pIC50

[
  {
    "smiles-repr": "C[C@@H](N)C(=O)Nc1c(NC[C@H]2O[C@@H](n3cnc4c(N)ncnc43)[C@H](O)[C@@H]2O)c(=O)c1=O",
    "measured-parameter": "pIC50",
    "measured": 4.55
  },
  {
    "smiles-repr": "C[C@@H](N)C(=O)NS(=O)(=O)OC[C@H]1O[C@@H](n2cnc3c(N)ncnc32)[C@@H](N=[N+]=[N-])[C@@H]1O",
    "measured-parameter": "pIC50",
    "measured": 5.42
  },
  {
    "smiles-repr": "C[C@@H](N)C(=O)NS(=O)(=O)OC[C@H]1O[C@@H](n2cnc3c(N)ncnc32)[C@H](F)[C@@H]1O",
    "measured-parameter": "pIC50",
    "measured": 5.59
  }
]

----------
biological target: recombinant DltA from E. faecalis (Enterococcus faecalis, UniProt Q830N0); construct: made in house; host or cells: E. coli; assay: DltA enzyme inhibition, PPi release coupled-enzyme assay; assay type: biochemical

[
  {
    "compound": "CC(N)C(=O)NS(=O)(=O)NCC1OC(n2cnc3c(N)ncnc32)C(F)C1O (stereo not shown)",
    "IC50 (nM)": 3200
  },
  {
    "compound": "C[C@@H](N)C(=O)c1cn(C[C@H]2O[C@@H](n3cnc4c(N)ncnc43)[C@H](F)[C@@H]2O)nn1",
    "IC50 (nM)": 14700
  },
  {
    "compound": "CC(N)C(=O)NS(=O)(=O)NCC1OC(n2cnc3c(N)ncnc32)C(O)C1O (stereo not shown)",
    "IC50 (nM)": 1800
  },
  {
    "compound": "C[C@@H](N)C(=O)NS(=O)(=O)OC[C@H]1O[C@@H](n2cnc3c(N)ncnc32)[C@H](O)[C@@H]1O [Compound 1, reference compound]",
    "IC50 (nM)": 2300
  }
]
